So I've got a bunch of compounds here, and I need their IC50 values.
# target.or.test.system: human TRPM8 (Homo sapiens, UniProt Q7Z2W7)
# Sequence (Q7Z2W7 whole entry): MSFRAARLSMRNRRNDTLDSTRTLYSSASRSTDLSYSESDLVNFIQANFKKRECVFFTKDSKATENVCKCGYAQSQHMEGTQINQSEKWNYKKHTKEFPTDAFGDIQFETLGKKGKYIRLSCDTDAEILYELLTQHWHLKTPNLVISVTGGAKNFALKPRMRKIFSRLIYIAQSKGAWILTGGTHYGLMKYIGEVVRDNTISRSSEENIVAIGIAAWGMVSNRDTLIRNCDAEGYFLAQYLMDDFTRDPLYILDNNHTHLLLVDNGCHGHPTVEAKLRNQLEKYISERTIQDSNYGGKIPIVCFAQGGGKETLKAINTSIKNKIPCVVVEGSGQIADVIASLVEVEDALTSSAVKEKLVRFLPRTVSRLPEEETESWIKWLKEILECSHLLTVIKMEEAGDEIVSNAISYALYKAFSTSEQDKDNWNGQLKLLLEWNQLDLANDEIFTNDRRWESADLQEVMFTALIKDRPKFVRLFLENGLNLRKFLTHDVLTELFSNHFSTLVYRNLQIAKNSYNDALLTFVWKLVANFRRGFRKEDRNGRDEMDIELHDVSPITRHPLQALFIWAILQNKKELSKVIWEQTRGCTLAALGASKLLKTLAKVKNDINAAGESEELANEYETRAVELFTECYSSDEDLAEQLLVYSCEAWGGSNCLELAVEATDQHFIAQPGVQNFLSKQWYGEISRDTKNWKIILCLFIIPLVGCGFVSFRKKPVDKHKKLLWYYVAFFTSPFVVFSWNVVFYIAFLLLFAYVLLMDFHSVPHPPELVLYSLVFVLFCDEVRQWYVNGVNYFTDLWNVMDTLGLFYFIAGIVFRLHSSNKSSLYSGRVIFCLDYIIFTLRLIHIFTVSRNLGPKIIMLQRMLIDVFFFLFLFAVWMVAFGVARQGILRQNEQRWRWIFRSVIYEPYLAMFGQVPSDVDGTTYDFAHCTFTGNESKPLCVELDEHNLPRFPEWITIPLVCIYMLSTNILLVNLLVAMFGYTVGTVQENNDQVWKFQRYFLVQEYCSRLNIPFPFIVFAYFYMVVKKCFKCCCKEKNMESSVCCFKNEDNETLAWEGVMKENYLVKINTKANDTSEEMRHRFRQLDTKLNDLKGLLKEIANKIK
# test.summary: Menthol-induced Ca2+ influx in HEK293 cells stably expressing human TRPM8
# reported.conditions: 30 microM menthol-induced Ca2+ influx, read-out: IC50 against TRPM8

- O=C(CN1C(=O)NC2(CCC(F)(F)CC2)C1=O)c1ccc(-c2ncnc3[nH]ccc23)cc1: < 10 nM
- Nc1nccnc1-c1ccc(C(=O)CN2C(=O)NC3(CCC(F)(F)CC3)C2=O)cc1: < 500 nM

Provide the reported IC50 of each entry below, same order.
1. O=C(CN1C(=O)NC2(CCC(F)(F)CC2)C1=O)c1ccc(Oc2nccs2)cc1
2. Cc1ncccc1-c1cnc(C(=O)CN2C(=O)NC3(CCC(F)(F)CC3)C2=O)cn1
3. O=C(CN1C(=O)NC2(CCC(F)(F)CC2)C1=O)c1ccc(-c2cccnc2)c(Cl)c1
4. CC(=O)c1ccccc1-c1ccc(C(=O)CN2C(=O)NC3(CCC(F)(F)CC3)C2=O)cc1
5. Cc1cc(C(=O)CN2C(=O)NC3(CCC(F)(F)CC3)C2=O)c(C)n1-c1ccc2ccccc2n1

1: < 100 nM; 2: < 10 nM; 3: < 100 nM; 4: < 500 nM; 5: < 500 nM

###

# target.or.test.system: human TRPM8 (Homo sapiens, UniProt Q7Z2W7)
# Construct: expressed in transfected cells; host or cells: HEK293
# test.summary: Menthol-induced Ca2+ influx in HEK293 cells stably expressing human TRPM8
# Format: cell-based
# reported.conditions: 30 microM menthol-induced Ca2+ influx, read-out: IC50 against TRPM8
Structures can show the parent of a compound that is named as a salt.
So I've got a bunch of molecules here, and I need their IC50 values.

• O=C(CN1C(=O)NC2(CCC(F)(F)CC2)C1=O)c1ccc(N2C(=O)COc3ccccc32)cc1 = < 100 nM

Provide the reported IC50 of each entry below, same order.
1. NCc1ccccc1-c1ccc(C(=O)CN2C(=O)NC3(CCC(F)(F)CC3)C2=O)cc1 [Example 6-55, hydrochloride]
2. Cc1sc(C(=O)CN2C(=O)NC3(CCC(F)(F)CC3)C2=O)c(C)c1-c1ccccc1C#N
3. Cc1cc2ccccc2n1-c1ccc(C(=O)CN2C(=O)NC3(CCC(F)(F)CC3)C2=O)cn1
4. O=C(CN1C(=O)NC2(CCC(F)(F)CC2)C1=O)c1ccc(-c2cccc3[nH]ccc23)nc1
5. O=C(CN1C(=O)NC2(CCC(F)(F)CC2)C1=O)c1ccc(-c2cccc3[nH]ncc23)cc1
6. Cc1cccc(-c2cnc(C(=O)CN3C(=O)NC4(CCC(F)(F)CC4)C3=O)n2C)c1
7. O=C(CN1C(=O)NC2(CCCCC2)C1=O)c1ccc(-c2ccccc2CO)nc1

["< 100 nM", "< 100 nM", "< 100 nM", "< 10 nM", "< 100 nM", "< 500 nM", "< 100 nM"]

Provide the reported IC50 of each entry below, same order.
1. Cc1sc(C(=O)CN2C(=O)NC3(CCC(F)(F)CC3)C2=O)c(C)c1-c1cccc(C(N)=O)c1
2. O=C(CN1C(=O)NC2(CCC(F)(F)CC2)C1=O)c1ccc(-c2cccc3c2CCN3)cc1
3. Cc1ccncc1-c1ccc(C(=O)CN2C(=O)NC3(CCCCC3)C2=O)cn1
4. O=C(CN1C(=O)NC2(CCCCC2)C1=O)c1ccc(-c2nccnc2CO)cc1
5. NC(=O)c1ccccc1-c1ccc(C(=O)CN2C(=O)NC3(CCC(F)(F)CC3)C2=O)cc1

1. < 100 nM
2. < 500 nM
3. < 10 nM
4. < 100 nM
5. < 500 nM

Provide the reported IC50 of each entry below, same order.
1. Cc1cc(-n2c(C)cc(C(=O)CN3C(=O)NC4(CCC(F)(F)CC4)C3=O)c2C)on1
2. CCN(c1ccccc1)c1ccc(C(=O)CN2C(=O)NC3(CCCCC3)C2=O)cn1

1. < 100 nM
2. < 100 nM

Given O=C(CN1C(=O)NC2(CCC(F)(F)CC2)C1=O)c1ccc(-c2nccc3ccncc23)cc1 , state its recorded IC50. < 100 nM
